This collection of values is drawn from patent US20260224571A1.

Known IC50 of a selection of compounds
target: ROCK2 (Homo sapiens)
Sequence (O75116 whole entry): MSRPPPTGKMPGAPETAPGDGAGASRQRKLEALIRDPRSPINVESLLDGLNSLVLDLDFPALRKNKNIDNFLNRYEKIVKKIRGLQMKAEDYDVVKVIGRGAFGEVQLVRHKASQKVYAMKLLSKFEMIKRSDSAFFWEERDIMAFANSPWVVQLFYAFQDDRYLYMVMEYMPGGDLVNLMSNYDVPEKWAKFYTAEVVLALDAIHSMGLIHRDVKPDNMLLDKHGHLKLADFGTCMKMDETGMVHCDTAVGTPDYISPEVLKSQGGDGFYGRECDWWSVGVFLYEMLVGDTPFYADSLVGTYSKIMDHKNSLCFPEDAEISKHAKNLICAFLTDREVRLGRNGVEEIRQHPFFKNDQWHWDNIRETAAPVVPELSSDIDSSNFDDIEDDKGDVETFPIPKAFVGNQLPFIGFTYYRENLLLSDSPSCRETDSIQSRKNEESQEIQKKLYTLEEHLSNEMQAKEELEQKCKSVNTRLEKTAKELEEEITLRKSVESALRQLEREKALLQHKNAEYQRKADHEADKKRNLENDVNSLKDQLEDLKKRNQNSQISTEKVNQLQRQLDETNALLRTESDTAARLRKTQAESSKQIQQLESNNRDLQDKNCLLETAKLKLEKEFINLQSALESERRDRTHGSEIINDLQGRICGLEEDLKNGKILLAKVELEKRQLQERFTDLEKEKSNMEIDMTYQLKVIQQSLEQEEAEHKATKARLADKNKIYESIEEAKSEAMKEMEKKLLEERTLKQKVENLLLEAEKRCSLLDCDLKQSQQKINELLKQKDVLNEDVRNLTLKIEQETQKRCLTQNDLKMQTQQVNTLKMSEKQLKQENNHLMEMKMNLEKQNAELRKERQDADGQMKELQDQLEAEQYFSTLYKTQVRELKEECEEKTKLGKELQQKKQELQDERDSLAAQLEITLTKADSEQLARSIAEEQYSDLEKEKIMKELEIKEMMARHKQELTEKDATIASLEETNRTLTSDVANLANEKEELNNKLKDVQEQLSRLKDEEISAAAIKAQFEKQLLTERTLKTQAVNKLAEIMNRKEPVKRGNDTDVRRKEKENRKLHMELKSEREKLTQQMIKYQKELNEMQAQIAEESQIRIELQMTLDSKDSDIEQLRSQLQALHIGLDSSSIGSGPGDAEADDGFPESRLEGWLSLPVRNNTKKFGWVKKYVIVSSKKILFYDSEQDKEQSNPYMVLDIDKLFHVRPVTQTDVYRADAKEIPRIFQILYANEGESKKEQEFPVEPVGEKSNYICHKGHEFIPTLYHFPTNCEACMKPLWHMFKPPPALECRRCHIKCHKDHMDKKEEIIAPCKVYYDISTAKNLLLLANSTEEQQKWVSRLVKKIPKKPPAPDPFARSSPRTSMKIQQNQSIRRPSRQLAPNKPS
metric: IC50

item.smiles: CN(C)S(=O)(=O)N1CC(CC#N)(n2cc(-c3ncnc4[nH]ccc34)c(N)n2)C1
metric: IC50
measured: < 10 nM
--
item.smiles: CCS(=O)(=O)N1CC(CC#N)(n2cc(-c3ncnc4[nH]ccc34)c(O)n2)C1
metric: IC50
measured: > 100 nM
--
item.smiles: CC(=O)Nc1nn(C2(CC#N)CN(S(=O)(=O)C(F)(F)F)C2)cc1-c1ncnc2[nH]ccc12
metric: IC50
measured: < 5 nM
--
item.smiles: CCNC(=O)N1CC(CC#N)(n2cc(-c3ncnc4[nH]ccc34)c(N)n2)C1
metric: IC50
measured: < 5 nM
--
item.smiles: CS(=O)(=O)CS(=O)(=O)N1CC(CC#N)(n2cc(-c3ncnc4[nH]ccc34)c(N)n2)C1
metric: IC50
measured: < 5 nM
--
item.smiles: COC(=O)CNS(=O)(=O)N1CC(CC#N)(n2cc(-c3ncnc4[nH]ccc34)c(N)n2)C1
metric: IC50
measured: < 10 nM
--
item.smiles: N#CCC1(n2cc(-c3ncnc4[nH]ccc34)c(N)n2)CN(C(=O)C2CC(F)(F)C2)C1
metric: IC50
measured: < 10 nM
--
item.smiles: CS(=O)(=O)N1CC(CC#N)(n2cc(-c3ncnc(NCC4CCOCC4)n3)c(N)n2)C1
metric: IC50
measured: > 100 nM
